Assay: A qHTS for Small Molecule Inhibitors of Shiga Toxin; also: 0% is about no effect
Conditions: Vero cells, Shiga toxin protein synthesis inhibition reporter; at 38.7 µM
Screen size: about 290,000 compounds; about 27,000 (9.3%) were called active. Rule as the data show it: active = inhibition mostly above about 28% (no sharp cut-off); inactive = mostly below about 43%. Many of the other results were omitted from the sample, so actives are more common in it than they were.
Result category, one only: active, inactive

QUERY: State the result this test recorded for COc1ccc(N(CC(=O)NCCSCc2cccc(Cl)c2)S(C)(=O)=O)cc1 .
RESULT: inactive

QUERY: What was the test verdict on CC1CCN(CCCn2c(SCC(=O)NC3CCCC3)nc3ccccc3c2=O)CC1 ?
RESULT: inactive

QUERY: Please state the recorded outcome for this compound: N#Cc1cccc(NC(=O)CN2CCCCCC2)c1
RESULT: inactive

QUERY: How was O=c1c2c(nc3nc[nH]n13)CCC2 classified in this test?
RESULT: inactive

QUERY: For this compound, state the assay outcome: Cc1n[nH]c(C)c1S(=O)(=O)N1CCCC(C(=O)Nc2ccc(Br)cc2)C1 (configuration not stated)
RESULT: inactive

QUERY: Recorded call for COc1ccc(CNc2ncnc3ccccc23)cc1 ?
RESULT: inactive

QUERY: // return assay outcome for Cc1ccc(CC(=O)Nc2cccc(C#N)c2)cc1
RESULT: inactive

QUERY: Which outcome was assigned to Clc1ccc(C[n+]2cc(-c3ccccc3)n3c2CCC3)cc1 in this test?
RESULT: inactive

QUERY: Assay result, entry N#Cc1cccc(NC(=O)CCC2CCCC2)c1 — outcome?
RESULT: active

QUERY: Assay result, entry Cc1ccc(S(=O)(=O)Oc2ccc(/C=N/NC(=O)c3ccncc3)cc2)cc1 — outcome?
RESULT: inactive

QUERY: What call does the record list for COc1ccc(/C=N/S(=O)(=O)c2ccccc2)cc1OC ?
RESULT: inactive

QUERY: // param item: COc1cc(/C=N/NC(=O)c2ccccc2)ccc1OS(=O)(=O)c1ccccc1 ; yields the recorded call
RESULT: active

###

Experiment: A qHTS for Small Molecule Inhibitors of Shiga Toxin; also: 0% is about no effect
Details: Vero cells, Shiga toxin protein synthesis inhibition reporter; at 38.7 µM, hits give high values
Screen size: about 290,000 compounds; about 27,000 (9.3%) were called active. Many of the other results were omitted from the sample, so actives are more common in it than they were.
Items are presented alongside their recorded inhibition.
Field format: number, assumed %, no unit text.

Smiles String	Quantity Unit	inhibition
COC(=O)CSc1ncnc2c1cnn2-c1ccc(C)cc1C	%	-5.7

QUERY: So what does the record say about inhibition for c1ccc(-n2ncc3c2ncn2c(C4CCCCC4)nnc32)cc1 ?
RESULT: 11.5

QUERY: Which value of inhibition has been reported for COc1cccc(NC(C)=[N+](C)CCNS(=O)(=O)c2ccc(Cl)cc2)c1 in the records?
RESULT: 119

QUERY: Return reported inhibition; argument: CCNS(=O)(=O)c1ccc(NC(=O)Nc2cccc(OC)c2)cc1
RESULT: -33.1

QUERY: Request the reported inhibition associated with CC(C)Sc1ncnc2c1cnn2-c1ccccc1
RESULT: 96.6

QUERY: Need inhibition of COc1cccc(NC(=O)CCNS(=O)(=O)c2ccc3c(c2)oc(=O)n3C)c1 , thanks.
RESULT: 14.5

###

inhibition overview
Experiment: A qHTS for Small Molecule Inhibitors of Shiga Toxin; also: 0% is about no effect
Details: Vero cells, Shiga toxin protein synthesis inhibition reporter; at 38.7 µM, hits give high values
Out of some 290,000 compounds screened, about 27,000 (9.3%) were called active. What follows is part of a selection rich in actives, with near analogues and random picks from the rest.
All answers are understood in %, so give the number only.

Smiles String	inhibition [%]
CCOc1ccccc1-c1cc(C(=O)N2CCOCC2)c2ccccc2n1	-10.7
O=C(NC1CCCC1)C(=O)c1c[nH]c2ccccc12	60.6

QUERY: Fill in: inhibition of Cc1c(C(=O)NC(=S)NCc2cccnc2)oc2ccccc12 is ___
RESULT: -22.1

Where do the numbers come from? From PubChem BioAssay AID2315.
